These data points were gathered from paper PMC11219871.

# Protocol summary: Cytotoxicity (LC50)
# Format: cell-based
# Stated conditions: human, PBMCs from healthy donors, 72-h exposure
Would you mind telling me the reported CC50 at 72 h of each entry?
Numbers only, in nM.

1) COc1cc2nc(-c3ccc(C)o3)cc(NCC3CCN(c4ncc(C(=O)NO)cn4)CC3)c2cc1OC : 1240

Ask: Item under review: `COc1cc2nc(-c3cc(C)oc3C)cc(NCC3CCN(c4ncc(C(=O)NO)cn4)CC3)c2cc1OC` . Reported CC50 at 72 h?
Reply: 2410

* * *

Hi there, I'd appreciate the recorded Number of proteins with 4 Acetyl-K sites per protein for every entry that follows.
# Tested on: ML-2
# Protocol summary: Acetylome analysis (Acetyl-K enrichment, LC-MS/MS)
# Assay type: cell-based, human
# Stated conditions: distribution of acetylated sites in the acetylated proteins (Fig 4D)
# Procedure: Cellular pellets were lysed for 15 min at 95 °C in 4% SDS, 100 mM Hepes/NaOH pH 8.0, containing 5 mM sodium butyrate and 5 mM Nicotinamide. […] Protein concentration was determined using microBCA, using BSA as standard. […] Peptides (500 µg) were labeled with Thermo Scientific TMTpro 18plex™ Isobaric reagents for 1 h at 25 C. […] Samples were pooled at a 1:1 ratio based on the total peptide amount, determined by comparing overall signal intensities on a regular LC-MS/MS run. […]
Answers are plain numbers.

1. COc1cc2nc(-c3ccc(C)o3)cc(NCC3CCN(c4ncc(C(=O)NO)cn4)CC3)c2cc1OC : 14
2. Cc1[nH]c2ccccc2c1CCNCc1ccc(/C=C/C(=O)NO)cc1 [Panobinostat, reference compound] : 6
3. O=C(CCCCCCC(=O)Nc1ccccc1)NO [Vorinostat, reference compound] : 5

Ask: Which Number of proteins with 4 Acetyl-K sites per protein reading was recorded for the compound `COc1cc2nc(-c3cc(C)oc3C)cc(NCC3CCN(c4ncc(C(=O)NO)cn4)CC3)c2cc1OC` ?
Reply: 6

* * *

# Protocol summary: Pharmacokinetic study in plasma samples
# Assay type: in vivo, mouse
# Stated conditions: RAG-2, mouse, plasma, ip; 10 mg/kg i.p., mice, NCA, mean; read-out: t½ (converted)
# Method: Compounds CM-444 and CM-1758 were measured in plasma using an Acquity UPLC system (Waters, Manchester, UK) coupled to an Xevo-TQ MS triple-quadrupole mass spectrometer with ESI source. […] Chromatographic separation was performed by gradient elution at 0.6 mL/min using an Acquity UPLC BEH C18 column (50 × 2.1 mm, 1.7 µm; Waters). […] For detection and quantification, the ESI operated in the positive mode was set up for multiple reaction monitoring. […]
Endpoint: half-life (h)
Numbers only, in h.

Ask: For the molecule COc1cc2nc(-c3cc(C)oc3C)cc(NCC3CCN(c4ncc(C(=O)NO)cn4)CC3)c2cc1OC [CM-1758] , what half-life is on record?
Reply: 1.95

* * *

# Protocol summary: Pharmacokinetic study in plasma samples
# Format: in vivo, mouse
# Stated conditions: RAG-2, mouse, plasma, ip; 10 mg/kg i.p., mice, NCA; read-out: Norm. Vz/F
I'd be grateful if you could share measured Vd/F for these entries.
Show the value, then the unit it is measured in.

1. COc1cc2nc(-c3cc(C)oc3C)cc(NCC3CCN(c4ncc(C(=O)NO)cn4)CC3)c2cc1OC : 28.6 L/kg

Okay, next one:
Ask: Which Vd/F is reported for this compound? `COc1cc2nc(-c3ccc(C)o3)cc(NCC3CCN(c4ncc(C(=O)NO)cn4)CC3)c2cc1OC`
Reply: 262 L/kg

* * *

# Protocol summary: Pharmacokinetic study in plasma samples
# Type: in vivo, mouse
# Stated conditions: RAG-2, mouse, plasma, intraperitoneal; 10 mg/kg i.p., 8 h; read-out: plasmatic concentration, Mean
Hi there, I'd appreciate the recorded concentration at 8 h for every entry that follows.
Give bare numbers, in nM.

1. COc1cc2nc(-c3ccc(C)o3)cc(NCC3CCN(c4ncc(C(=O)NO)cn4)CC3)c2cc1OC : 2.4

// switching to the query molecule
Ask: # get_value(readout='concentration at 8 h', item= `COc1cc2nc(-c3cc(C)oc3C)cc(NCC3CCN(c4ncc(C(=O)NO)cn4)CC3)c2cc1OC` )
Reply: 4.3

* * *

Would you mind telling me the reported Papp A→B at 120 min, 2 µM of each entry?
# Protocol summary: CACO-2 permeability
# Type: in vitro ADME
# Stated conditions: human, Caco-2, pH 7.4, A to B

1) COc1cc2nc(-c3ccc(C)o3)cc(NCC3CCN(c4ncc(C(=O)NO)cn4)CC3)c2cc1OC : < 0.01 ×10⁻⁶ cm/s

Let us move to another entry and its Papp A→B at 120 min, 2 µM.
Ask: Look up Papp A→B at 120 min, 2 µM: `COc1cc2nc(-c3cc(C)oc3C)cc(NCC3CCN(c4ncc(C(=O)NO)cn4)CC3)c2cc1OC`
Reply: < 0.01 ×10⁻⁶ cm/s

* * *

Would you kindly list fraction unbound at 4 h, 2 µM for each of these molecules?
# Protocol summary: Plasma protein binding (equilibrium dialysis)
# Format: in vitro ADME
# Stated conditions: pH 7.4, Human

1) COc1cc2nc(-c3ccc(C)o3)cc(NCC3CCN(c4ncc(C(=O)NO)cn4)CC3)c2cc1OC : 0.011

Ask: If you can, please state the reported fraction unbound at 4 h, 2 µM value of `COc1cc2nc(-c3cc(C)oc3C)cc(NCC3CCN(c4ncc(C(=O)NO)cn4)CC3)c2cc1OC` .
Reply: 0.01

* * *

# Target: DNMT3B/3L (Homo sapiens)
# Protocol summary: Epigenetic panel (BPS Bioscience)
Endpoint: pIC50
Answers are plain numbers, as −log10 of the molar value.

Ask: Can you share its pIC50? I mean this compound: `COc1cc2nc(-c3ccc(C)o3)cc(NCC3CCN(c4ncc(C(=O)NO)cn4)CC3)c2cc1OC`
Reply: 5.64

* * *

# System: HL-60
# Protocol summary: Differentiation-apoptosis assay, CD11b / annexin-V / Sytox Green / myeloid markers flow cytometry
# Assay type: cell-based, human
# Stated conditions: HL-60, daily 25% GI50, 48 h
Would you mind telling me the reported CD11b (%) Replicate 2 of each entry?
Answers are plain numbers, in %.

Here are 6 compounds together with their reported answers.
1. COc1cc2nc(-c3ccc(C)o3)cc(NCC3CCN(c4ncc(C(=O)NO)cn4)CC3)c2cc1OC : 75.15
2. COc1cc2c(NC3CCN(C)CC3)cc(-c3ccc(C)o3)nc2cc1OCCCN1CCCC1 : 0.87
3. Cc1[nH]c2ccccc2c1CCNCc1ccc(/C=C/C(=O)NO)cc1 [Panobinostat, reference compound] : 18.60
4. COc1cc2c(NCC3CCN(C)CC3)cc(-c3ccc(C)o3)nc2cc1OCCCN1CCCC1 : 0.00
5. CCCc1nn(C)c2c(=O)[nH]c(-c3cc(S(=O)(=O)N4CCN(C)CC4)ccc3OCC)nc12 [Sildenafil, reference compound] : 4.74
6. COc1cc2nc(-c3cc(C)oc3C)cc(NCC3CCN(c4ncc(C(=O)NO)cn4)CC3)c2cc1OC : 68.41

For each of the compounds below, note its CD11b (%) Replicate 2.
1. Nc1ncn([C@H]2C[C@H](O)[C@@H](CO)O2)c(=O)n1 [Decitabine, reference compound]
2. COc1cc2c(cc1OCCCN1CCCC1)N=C(N)C21CCC1 [Compound A-366, A-366, reference compound]
3. CC1=C(/C=C/C(C)=C/C=C/C(C)=C/C(=O)O)C(C)(C)CCC1 [ATRA, all-trans retinoic acid, reference compound]

Reply:
[9.90, 5.40, 15.48]

* * *

# Protocol summary: Liver microsomal stability
# Type: in vitro ADME
# Stated conditions: human liver microsomes, read-out: Liver Microsomal Stability Estimation T1/2
Endpoint: half-life at 1 µM (min)
Give bare numbers, in min.

1. COc1cc2nc(-c3cc(C)oc3C)cc(NCC3CCN(c4ncc(C(=O)NO)cn4)CC3)c2cc1OC : 37.9

Attention now shifts to the item below.
Ask: // query half-life at 1 µM value for entry `COc1cc2nc(-c3ccc(C)o3)cc(NCC3CCN(c4ncc(C(=O)NO)cn4)CC3)c2cc1OC`
Reply: 28.8

* * *

# Target: CeCR2 (Homo sapiens)
# Sequence (Q9BXF3 whole entry): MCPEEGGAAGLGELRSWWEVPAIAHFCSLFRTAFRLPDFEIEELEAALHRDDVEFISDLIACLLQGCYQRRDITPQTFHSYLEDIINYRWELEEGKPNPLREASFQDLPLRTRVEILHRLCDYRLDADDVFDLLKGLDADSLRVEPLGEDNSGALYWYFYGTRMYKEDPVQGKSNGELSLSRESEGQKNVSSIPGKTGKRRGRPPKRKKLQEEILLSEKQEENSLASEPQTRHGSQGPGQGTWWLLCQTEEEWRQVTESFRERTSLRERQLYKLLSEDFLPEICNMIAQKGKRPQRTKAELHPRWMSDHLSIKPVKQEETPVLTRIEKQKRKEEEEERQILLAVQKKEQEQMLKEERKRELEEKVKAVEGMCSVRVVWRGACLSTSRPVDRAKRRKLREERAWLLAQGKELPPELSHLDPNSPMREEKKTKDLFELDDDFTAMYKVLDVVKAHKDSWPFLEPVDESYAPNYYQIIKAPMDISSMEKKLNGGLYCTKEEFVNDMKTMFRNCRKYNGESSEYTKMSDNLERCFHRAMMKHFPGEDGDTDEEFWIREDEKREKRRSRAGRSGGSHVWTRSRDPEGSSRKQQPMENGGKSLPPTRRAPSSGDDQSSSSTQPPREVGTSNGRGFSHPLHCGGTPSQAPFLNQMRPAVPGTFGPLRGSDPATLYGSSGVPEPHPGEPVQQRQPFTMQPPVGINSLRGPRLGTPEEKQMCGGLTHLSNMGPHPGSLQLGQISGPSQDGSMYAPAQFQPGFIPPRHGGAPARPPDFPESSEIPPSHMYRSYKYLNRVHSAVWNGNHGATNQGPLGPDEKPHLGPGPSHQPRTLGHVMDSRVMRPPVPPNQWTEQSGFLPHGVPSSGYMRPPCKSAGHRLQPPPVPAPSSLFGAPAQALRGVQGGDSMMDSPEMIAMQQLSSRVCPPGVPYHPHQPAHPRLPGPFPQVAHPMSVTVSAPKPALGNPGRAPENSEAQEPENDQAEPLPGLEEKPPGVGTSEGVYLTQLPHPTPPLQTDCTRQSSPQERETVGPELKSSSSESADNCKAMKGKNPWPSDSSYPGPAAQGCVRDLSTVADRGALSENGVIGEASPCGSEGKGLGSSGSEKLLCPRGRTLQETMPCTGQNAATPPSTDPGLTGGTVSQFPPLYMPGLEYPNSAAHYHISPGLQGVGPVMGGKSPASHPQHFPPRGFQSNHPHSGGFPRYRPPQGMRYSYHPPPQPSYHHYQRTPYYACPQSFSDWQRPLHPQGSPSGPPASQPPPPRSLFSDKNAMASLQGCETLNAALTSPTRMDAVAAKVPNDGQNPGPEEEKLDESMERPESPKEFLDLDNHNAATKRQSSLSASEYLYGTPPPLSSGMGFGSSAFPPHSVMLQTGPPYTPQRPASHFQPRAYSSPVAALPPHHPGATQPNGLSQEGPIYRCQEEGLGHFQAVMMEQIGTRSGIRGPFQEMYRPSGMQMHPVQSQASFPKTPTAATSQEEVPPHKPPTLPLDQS
Endpoint: pIC50
Numbers only, as −log10 of the molar value.

Ask: // returns reported pIC50 for input COc1cc2nc(-c3cc(C)oc3C)cc(NCC3CCN(c4ncc(C(=O)NO)cn4)CC3)c2cc1OC [CM-1758]
Reply: 6.03

* * *

# Tested on: ML-2
# Protocol summary: Acetylome analysis (Acetyl-K enrichment, LC-MS/MS)
# Assay type: cell-based, human
# Stated conditions: ML-2 (Fig 4C)
Endpoint: Acetyl-K sites: Regulated, Number
Answers are plain numbers.

Examples with answers:
1) COc1cc2nc(-c3ccc(C)o3)cc(NCC3CCN(c4ncc(C(=O)NO)cn4)CC3)c2cc1OC : 824
2) COc1cc2nc(-c3cc(C)oc3C)cc(NCC3CCN(c4ncc(C(=O)NO)cn4)CC3)c2cc1OC : 736
3) O=C(CCCCCCC(=O)Nc1ccccc1)NO [Vorinostat, reference compound] : 509

Ask: Requested read-out: Acetyl-K sites: Regulated, Number. Entry: Cc1[nH]c2ccccc2c1CCNCc1ccc(/C=C/C(=O)NO)cc1 [Panobinostat, reference compound]
Reply: 639
